Values compiled from BindingDB's records for patent US10626094.

Sequence of the target: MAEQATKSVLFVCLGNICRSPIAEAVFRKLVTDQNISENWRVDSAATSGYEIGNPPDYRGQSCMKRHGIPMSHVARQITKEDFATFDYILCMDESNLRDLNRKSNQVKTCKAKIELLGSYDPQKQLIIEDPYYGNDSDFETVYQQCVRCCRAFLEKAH
property.measured: IC50

Clc1cccc(Cl)c1-c1cc(NCCCC2CCCNC2)c2ccccc2n1 (stereo unspecified) [US11220486, Compound I100] ... > 5 µM
